# System: ERK phosphorylation in primary rat astrocytes
# protocol.text: ERK phosphorylation in primary rat astrocytes (MSD pERK assay)
# Assay type: cell-based
# assay.setup: 10-minute exposure, mean of n=3
measurement.name: EC50 (nM)

• CCCCCCCCc1ccc(CC[C@](N)(CO)COP(=O)(O)O)cc1 [FTY720-P, reference compound] = 0.16
